Biological target: BChE from equine serum (Equus caballus, UniProt P81908)
Construct: butyrylcholinesterase was from equine serum
Sequence (P81908 whole entry): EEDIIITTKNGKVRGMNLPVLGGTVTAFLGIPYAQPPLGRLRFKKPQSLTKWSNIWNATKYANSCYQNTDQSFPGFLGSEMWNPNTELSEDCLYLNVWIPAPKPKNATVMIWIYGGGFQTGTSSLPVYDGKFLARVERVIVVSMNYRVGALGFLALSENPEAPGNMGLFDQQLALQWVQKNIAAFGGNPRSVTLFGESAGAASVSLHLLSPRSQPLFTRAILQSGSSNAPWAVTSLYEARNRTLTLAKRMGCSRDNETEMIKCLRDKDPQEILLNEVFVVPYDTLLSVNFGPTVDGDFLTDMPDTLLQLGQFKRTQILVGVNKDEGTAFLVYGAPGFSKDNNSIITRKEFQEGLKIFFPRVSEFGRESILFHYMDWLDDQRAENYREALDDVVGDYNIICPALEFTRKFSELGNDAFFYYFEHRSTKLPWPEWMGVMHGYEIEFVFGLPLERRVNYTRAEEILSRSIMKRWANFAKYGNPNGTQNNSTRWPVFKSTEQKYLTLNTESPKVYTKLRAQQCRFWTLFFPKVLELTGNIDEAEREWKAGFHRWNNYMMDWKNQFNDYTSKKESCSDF
Assay: Butyrylcholinesterase inhibition, spectrophotometric Ellman's method
Define the label as Condition met when IC50 is strictly less than 40 µM and as Condition not met in all remaining cases.

Examples with answers:
Lookup: A record lists CN(C)C(=O)Oc1ccc(Cl)cc1C(=O)Nc1ccc(Cl)cc1 [1a] . Is its IC50 below 40 µM?
Found: Condition not met

Lookup: A record lists CN(C(=O)Oc1ccccc1C(=O)Nc1ccccc1)c1ccccc1 [5c] . Is its IC50 below 40 µM?
Found: Condition met

Next:
Lookup: A record lists O=C(Nc1ccc(Br)cc1)c1cc(Cl)ccc1OC(=O)N(c1ccccc1)c1ccccc1 [2d] . Is its IC50 below 40 µM?
Found: Condition not met

Lookup: A record lists CN(C)C(=O)Oc1ccc(Cl)cc1C(=O)Nc1ccc(C(F)(F)F)cc1 [4a] . Is its IC50 below 40 µM?
Found: Condition met

Lookup: A record lists CN(C)C(=O)Oc1ccc(Cl)cc1C(=O)Nc1ccc(F)cc1 [3a] . Is its IC50 below 40 µM?
Found: Condition not met

----------
Reported values of Selectivity to BChE for individual entries
Target: BChE from equine serum (Equus caballus, UniProt P81908)
Construct: butyrylcholinesterase was from equine serum; from tissue; host or cells: equine serum
Experiment: Butyrylcholinesterase inhibition, spectrophotometric Ellman's method
Format: biochemical
Conditions: IC50 for AChE/IC50 for BChE
Description: The IC50 values were determined using the spectrophotometric Ellman’s method, which is a simple and rapid method to determine the SH and -S-S- groups content in proteins. […] Cholinesterase activity is measured indirectly by quantifying the concentration of the 5-mercapto-2-nitrobenzoic acid ion formed in the reaction between the thiol reagent 5,5′-dithiobis(2-nitrobenzoic acid) and thiocholine, a product of substrate hydrolysis (i.e., acetylthiocholine, ATCh) by cholinesterases. […]
// response body must contain only the number

See these solved cases before continuing.
Lookup: So what's the measured Selectivity to BChE for this one? CN(C(=O)Oc1ccccc1C(=O)Nc1ccccc1)c1ccccc1
Found: 4.8

Lookup: So what's the measured Selectivity to BChE for this one? CN(C)C(=O)Oc1ccc(Cl)cc1C(=O)Nc1ccc(C(F)(F)F)cc1
Found: 1.7

Lookup: So what's the measured Selectivity to BChE for this one? O=C(Nc1ccc(C(F)(F)F)cc1)c1cc(Cl)ccc1OC(=O)N(c1ccccc1)c1ccccc1
Found: 1.0

Lookup: So what's the measured Selectivity to BChE for this one? CN(C)C(=S)Oc1ccc(Cl)cc1C(=O)Nc1ccc(Br)cc1
Found: 1.1

Next:
Lookup: So what's the measured Selectivity to BChE for this one? CN(C)C(=S)Oc1ccc(Cl)cc1C(=O)Nc1ccc(C(F)(F)F)cc1
Found: 1.2

----------
Reported pIC50 for target or system AChE from electric eel (Electrophorus electricus, UniProt O42275), by entry.
Here pIC50 is given on a logarithmic scale as minus log10 of the concentration in mol/L.

Lookup: Query pIC50 on AChE from electric eel (Electrophorus electricus, UniProt O42275) for O=C(Nc1ccccc1)c1ccccc1OC(=O)N(c1ccccc1)c1ccccc1
Sequence (O42275 24-633): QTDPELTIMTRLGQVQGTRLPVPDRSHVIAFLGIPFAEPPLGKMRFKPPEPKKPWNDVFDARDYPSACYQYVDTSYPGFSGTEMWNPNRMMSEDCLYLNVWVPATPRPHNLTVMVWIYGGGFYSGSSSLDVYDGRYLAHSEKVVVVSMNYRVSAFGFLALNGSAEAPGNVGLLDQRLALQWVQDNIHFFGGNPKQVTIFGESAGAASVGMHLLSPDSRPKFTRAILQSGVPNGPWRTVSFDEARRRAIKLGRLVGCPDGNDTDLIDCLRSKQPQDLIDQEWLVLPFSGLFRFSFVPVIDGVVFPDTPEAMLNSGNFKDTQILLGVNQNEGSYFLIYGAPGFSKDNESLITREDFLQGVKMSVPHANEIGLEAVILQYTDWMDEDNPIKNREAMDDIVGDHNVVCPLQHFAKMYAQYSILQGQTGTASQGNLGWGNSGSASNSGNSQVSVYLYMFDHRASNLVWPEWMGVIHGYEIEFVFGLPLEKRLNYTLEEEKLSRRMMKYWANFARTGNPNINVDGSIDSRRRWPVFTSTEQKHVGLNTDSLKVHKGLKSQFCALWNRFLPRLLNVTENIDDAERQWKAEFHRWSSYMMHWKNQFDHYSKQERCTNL
Found: 4.27

Lookup: Query pIC50 on AChE from electric eel (Electrophorus electricus, UniProt O42275) for CN(C)C(=O)Oc1ccccc1C(=O)Nc1ccccc1
Found: 4.24

Lookup: Query pIC50 on AChE from electric eel (Electrophorus electricus, UniProt O42275) for CN(C)C(=S)Oc1ccc(Cl)cc1C(=O)Nc1ccc(F)cc1
Found: 4.05

Lookup: Query pIC50 on AChE from electric eel (Electrophorus electricus, UniProt O42275) for O=C(Nc1ccc(Br)cc1)c1cc(Cl)ccc1OC(=O)N(c1ccccc1)c1ccccc1
Found: 4.20

Lookup: Query pIC50 on AChE from electric eel (Electrophorus electricus, UniProt O42275) for O=C(Nc1ccc(Cl)cc1)c1cc(Cl)ccc1OC(=O)N(c1ccccc1)c1ccccc1
Found: 4.26

Lookup: Query pIC50 on AChE from electric eel (Electrophorus electricus, UniProt O42275) for CN(C(=O)Oc1ccc(Cl)cc1C(=O)Nc1ccc(Cl)cc1)c1ccccc1
Found: 4.13

Lookup: Query pIC50 on AChE from electric eel (Electrophorus electricus, UniProt O42275) for CN(C)C(=S)Oc1ccc(Cl)cc1C(=O)Nc1ccc(C(F)(F)F)cc1
Found: 4.38

Lookup: Query pIC50 on AChE from electric eel (Electrophorus electricus, UniProt O42275) for CN(C)C(=O)Oc1ccc(Cl)cc1C(=O)Nc1ccc(Br)cc1
Found: 4.20

Next:
Lookup: Query pIC50 on AChE from electric eel (Electrophorus electricus, UniProt O42275) for O=C(Nc1ccc(C(F)(F)F)cc1)c1cc(Cl)ccc1OC(=O)N(c1ccccc1)c1ccccc1
Found: 4.32

Lookup: Query pIC50 on AChE from electric eel (Electrophorus electricus, UniProt O42275) for CN(C(=O)Oc1ccc(Cl)cc1C(=O)Nc1ccc(F)cc1)c1ccccc1
Found: 4.20

Lookup: Query pIC50 on AChE from electric eel (Electrophorus electricus, UniProt O42275) for CN(C)C(=S)Oc1ccc(Cl)cc1C(=O)Nc1ccc(Cl)cc1
Found: 4.41

Lookup: Query pIC50 on AChE from electric eel (Electrophorus electricus, UniProt O42275) for O=C(Nc1ccc(F)cc1)c1cc(Cl)ccc1OC(=O)N(c1ccccc1)c1ccccc1
Found: 4.31

Lookup: Query pIC50 on AChE from electric eel (Electrophorus electricus, UniProt O42275) for CN(C)C(=S)Oc1ccccc1C(=O)Nc1ccccc1
Found: 4.21

----------
Target: BChE from equine serum (Equus caballus, UniProt P81908)
Construct: butyrylcholinesterase was from equine serum
Assay: Butyrylcholinesterase inhibition, spectrophotometric Ellman's method
PROPERTY_MEASURED: pIC50
Here pIC50 is given on a logarithmic scale as minus log10 of the concentration in mol/L.

See these solved cases before continuing.
Lookup: So what's the measured pIC50 for this one? O=C(Nc1ccc(C(F)(F)F)cc1)c1cc(Cl)ccc1OC(=O)N(c1ccccc1)c1ccccc1
Found: 4.31

Lookup: So what's the measured pIC50 for this one? CN(C(=O)Oc1ccc(Cl)cc1C(=O)Nc1ccc(Br)cc1)c1ccccc1
Found: 5.37

Lookup: So what's the measured pIC50 for this one? CN(C)C(=S)Oc1ccc(Cl)cc1C(=O)Nc1ccc(C(F)(F)F)cc1
Found: 4.44

Lookup: So what's the measured pIC50 for this one? CN(C)C(=S)Oc1ccc(Cl)cc1C(=O)Nc1ccc(Br)cc1
Found: 4.26

Turning now to a further record.
Lookup: So what's the measured pIC50 for this one? O=C(Nc1ccc(F)cc1)c1cc(Cl)ccc1OC(=O)N(c1ccccc1)c1ccccc1
Found: 4.81
